Would you mind telling me the reported relative MEGL/2ABD activity (L-methionine) in the presence of competing compound of each entry?
# tested system: MEGL/2ABD (Porphyromonas gingivalis, UniProt Q7MX71)
# Construct: hexa-His tag with TEV protease site (N, cleaved yes); made in house; host or cells: E. coli BL21 (DE3)
# Sequence (Q7MX71 7-399): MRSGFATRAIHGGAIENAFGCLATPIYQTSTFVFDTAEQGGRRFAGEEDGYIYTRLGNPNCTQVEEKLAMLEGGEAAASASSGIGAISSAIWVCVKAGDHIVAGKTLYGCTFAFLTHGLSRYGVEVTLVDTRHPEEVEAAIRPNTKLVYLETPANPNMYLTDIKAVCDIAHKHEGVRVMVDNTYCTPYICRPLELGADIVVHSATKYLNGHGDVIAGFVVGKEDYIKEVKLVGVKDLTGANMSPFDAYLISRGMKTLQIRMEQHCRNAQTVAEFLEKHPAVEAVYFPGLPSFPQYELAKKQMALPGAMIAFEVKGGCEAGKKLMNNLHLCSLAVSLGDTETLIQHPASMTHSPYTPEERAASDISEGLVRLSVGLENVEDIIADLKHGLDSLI
# Assay type: biochemical
# cond: isotope assay, FIG. 13E
Number only, in %; omit the unit.

What does the data say about its relative MEGL/2ABD activity (L-methionine) in the presence of competing compound? Entry: "N[C@@H](CCOC(=O)CCC(=O)O)C(=O)O"
45.6

What does the data say about its relative MEGL/2ABD activity (L-methionine) in the presence of competing compound? Entry: C#CCC(N)C(=O)O (stereo not drawn) [propargylglycine, reference compound]
0.26

What does the data say about its relative MEGL/2ABD activity (L-methionine) in the presence of competing compound? Entry: "C[Se]CC[C@H](N)C(=O)O"
33.15

What does the data say about its relative MEGL/2ABD activity (L-methionine) in the presence of competing compound? Entry: "CSCC[C@@H](N)C(=O)O"
43.6

What does the data say about its relative MEGL/2ABD activity (L-methionine) in the presence of competing compound? Entry: C[S+]([O-])CC[C@H](N)C(=O)O (stereo partly drawn) [sulfoxymethionine, methionine-sulfoxide]
46.71

What does the data say about its relative MEGL/2ABD activity (L-methionine) in the presence of competing compound? Entry: "N[C@@H](CCSC[C@H](N)C(=O)O)C(=O)O"
54.6
